Test system: human SMAD7 mRNA
Assay: Dose-dependent inhibition of human SMAD7 mRNA expression in Hep3B cells (Example 3, Study 1 and 2)
Type: cell-based
Settings: 20000.0 nM, electroporation, approximately 16 hours, Study 2
Strand notation (5' to 3'): a small letter for the sugar, then the base; units joined by * are phosphorothioate-linked, units joined directly phosphodiester-linked; [ ] holds rarer units or linkages, { } end groups; capitals alone tell only the bases. k = constrained ethyl (cEt); [5mC] = 5-methylcytosine; d = 2'-deoxy (DNA)
reportedMetric: % inhibition of SMAD7 mRNA expression (%)
Field: numeric (%). Do not append units.

Previously resolved entries follow.
829776 (antisense kG*k[5mC]*kG*dA*dG*dT*dA*dG*dG*dA*d[5mC]*dG*dA*kG*kG*kG) [compound 829776]	81
790732 (kG*k[5mC]*kT*dT*dA*dT*dT*dT*d[5mC]*dA*dT*dG*dT*kG*kG*kT; antisense) [compound 790732]	93

Please give the measured % inhibition of SMAD7 mRNA expression for this substance: 799382 (antisense kA*k[5mC]*kT*dT*dT*dT*dA*dG*d[5mC]*dA*dA*dA*d[5mC]*kA*kG*kA) [compound 799382]
75

Please give the measured % inhibition of SMAD7 mRNA expression for this substance: 799624 (kT*kG*kA*dA*dA*dG*dT*dA*d[5mC]*dA*dA*dT*d[5mC]*kT*k[5mC]*k[5mC]; antisense) [compound 799624]
89

Please give the measured % inhibition of SMAD7 mRNA expression for this substance: 799543 (kT*k[5mC]*kA*dA*dA*dT*dG*d[5mC]*dA*dT*dG*dA*dG*kT*kT*kA; antisense) [compound 799543]
75
